Reported TGI is given for each of the following compounds.
Test system: SF-539 CNS
Test: NCI tumour cell line growth inhibition, 48 h

Past entries and their recorded results:
| compound | TGI |
| --- | --- |
| N#CC1=C(O)NC(O)=C(C#N)C1c1ccc(C2C(C#N)=C(O)NC(O)=C2C#N)cc1 | > 100 µM |
| C=C(C(=C)P(=S)(C(C)C)C(C)C)P(=S)(C(C)C)C(C)C | > 100 µM |
| Cc1c2c(n(CC(c3ccccc3)c3ccccc3)c1C)NN=C(C#N)S2(=O)=O | > 100 µM |
| Cc1nc2cc(Nc3ccccc3C(=O)O)ccc2s1 | > 100 µM |
| CCSC[C@@H]1C[C@](O)(c2ccc(F)cc2)[C@@H](c2ccc(F)cc2)O1 | 31.1 µM |

Tell me reported TGI for COC(=O)c1cc(OC)c(OC)c(OC)c1-c1cc2c(cc1C=O)OCO2 , tested with SF-539 CNS.
> 10 µM

Tell me reported TGI for O=[N+]([O-])c1cc([N+](=O)[O-])c(Cl)cc1Cl , tested with SF-539 CNS.
3.49 µM

Tell me reported TGI for O=C(CC1C=Cc2ccccc2N1C(=O)c1ccccc1)c1ccccc1 (stereo not drawn) , tested with SF-539 CNS.
66.7 µM

Tell me reported TGI for CC(=O)/C=C/c1ccc(OCc2ccc(Cl)cc2)cc1 , tested with SF-539 CNS.
> 1000 µM

Tell me reported TGI for C/C(=N\O)c1cccc[n+]1Cc1ccccc1 , tested with SF-539 CNS.
> 100 µM

Tell me reported TGI for CC1OC(CC(=O)O)CC2=C1C(=O)c1c(O)cccc1C2=O (stereo not drawn) , tested with SF-539 CNS.
2.43 µM

Tell me reported TGI for Cc1ccc(S(=O)(=O)N/N=C/C(C)C)cc1 , tested with SF-539 CNS.
> 100 µM

Tell me reported TGI for CC1(C)COC2=C(C1)C(=O)c1ccccc1C2=O , tested with SF-539 CNS.
2.9 µM

Tell me reported TGI for C/C(=N\Nc1nc2ccccc2s1)c1cc2ccccc2cn1 , tested with SF-539 CNS.
25.6 µM

Tell me reported TGI for NC(=O)CC(N=Cc1nc(-c2ccccc2)oc1O)C(=O)O (stereo not drawn) , tested with SF-539 CNS.
> 100 µM

Tell me reported TGI for Cc1nc2sc(C(=O)c3ccc(Cl)cc3)c(N)c2c(-c2ccccc2Cl)c1C(=O)Nc1ccccc1 , tested with SF-539 CNS.
30.5 µM

Tell me reported TGI for C=C=CC(NC(=O)c1ccccc1)(C(=O)O)C(F)(F)F (stereo not drawn) , tested with SF-539 CNS.
> 100 µM

Tell me reported TGI for COc1cc(OC)c2c(c1)OC(c1cccnc1)C(c1ccccc1)C2=O (stereo not drawn) , tested with SF-539 CNS.
> 100 µM
